format: physicochemical; details: 4° C., initial
Where a SMILES comes first, the peptide text is derived from it. [ ]: non-standard residue; d: D form. The star is where a group is joined. Gly(N-(2R-Ph-propyl)) = C[C@@H](CNCC(=O)O)c1ccccc1; Piperidin1yl(4-NH2,4-COOH) = NC1(C(=O)O)CCN(*)CC1

MOLECULE	UNIT_OF_MEASUREMENT	Purity %
CC(C)C[C@@H](NC(=O)[C@@H](Cc1ccccc1)NC(=O)CNC[C@H](C)c1ccccc1)C(=O)N[C@H](CCCCN)C(=O)N1CCC(N)(C(=O)O)CC1 [Embodiment 3] (H-[Gly(N-(2R-Ph-propyl))][dF][dL][dK]-{Piperidin1yl(4-NH2,4-COOH)})	%	99.59
CC(C)C[C@@H](NC(=O)[C@@H](Cc1ccccc1)NC(=O)CNC[C@H](C)c1ccccc1)C(=O)N[C@H](CCCCN)C(=O)N1CCC(N)(C(=O)O)CC1 [Embodiment 11] (H-[Gly(N-(2R-Ph-propyl))][dF][dL][dK]-{Piperidin1yl(4-NH2,4-COOH)})	%	99.50
CC(C)C[C@@H](NC(=O)[C@@H](Cc1ccccc1)NC(=O)CNC[C@H](C)c1ccccc1)C(=O)N[C@H](CCCCN)C(=O)N1CCC(N)(C(=O)O)CC1 [Embodiment 9] (H-[Gly(N-(2R-Ph-propyl))][dF][dL][dK]-{Piperidin1yl(4-NH2,4-COOH)})	%	99.54
CC(C)C[C@@H](NC(=O)[C@@H](Cc1ccccc1)NC(=O)CNC[C@H](C)c1ccccc1)C(=O)N[C@H](CCCCN)C(=O)N1CCC(N)(C(=O)O)CC1 [Embodiment 15] (H-[Gly(N-(2R-Ph-propyl))][dF][dL][dK]-{Piperidin1yl(4-NH2,4-COOH)})	%	99.64

====

assay type: physicochemical; settings: 4° C., 3 months
Where a SMILES comes first, the peptide text is derived from it. [ ]: non-standard residue; d: D form. The star is where a group is joined. Gly(N-(2R-Ph-propyl)) = C[C@@H](CNCC(=O)O)c1ccccc1; Piperidin1yl(4-NH2,4-COOH) = NC1(C(=O)O)CCN(*)CC1

MOLECULE	Purity %
CC(C)C[C@@H](NC(=O)[C@@H](Cc1ccccc1)NC(=O)CNC[C@H](C)c1ccccc1)C(=O)N[C@H](CCCCN)C(=O)N1CCC(N)(C(=O)O)CC1 [Embodiment 3] (H-[Gly(N-(2R-Ph-propyl))][dF][dL][dK]-{Piperidin1yl(4-NH2,4-COOH)})	99.58%
CC(C)C[C@@H](NC(=O)[C@@H](Cc1ccccc1)NC(=O)CNC[C@H](C)c1ccccc1)C(=O)N[C@H](CCCCN)C(=O)N1CCC(N)(C(=O)O)CC1 [Embodiment 11] (H-[Gly(N-(2R-Ph-propyl))][dF][dL][dK]-{Piperidin1yl(4-NH2,4-COOH)})	99.56%
CC(C)C[C@@H](NC(=O)[C@@H](Cc1ccccc1)NC(=O)CNC[C@H](C)c1ccccc1)C(=O)N[C@H](CCCCN)C(=O)N1CCC(N)(C(=O)O)CC1 [Embodiment 9] (H-[Gly(N-(2R-Ph-propyl))][dF][dL][dK]-{Piperidin1yl(4-NH2,4-COOH)})	99.51%
CC(C)C[C@@H](NC(=O)[C@@H](Cc1ccccc1)NC(=O)CNC[C@H](C)c1ccccc1)C(=O)N[C@H](CCCCN)C(=O)N1CCC(N)(C(=O)O)CC1 [Embodiment 15] (H-[Gly(N-(2R-Ph-propyl))][dF][dL][dK]-{Piperidin1yl(4-NH2,4-COOH)})	99.62%

====

type: physicochemical; details: 4500 Lux, 10 days
Where a SMILES comes first, the peptide text is derived from it. [ ]: non-standard residue; d: D form. The star is where a group is joined. Gly(N-(2R-Ph-propyl)) = C[C@@H](CNCC(=O)O)c1ccccc1; Piperidin1yl(4-NH2,4-COOH) = NC1(C(=O)O)CCN(*)CC1
QUANTITY: Purity % (%)

COMPOUND	UNIT_OF_MEASUREMENT	RECORDED_NUMBER
CC(C)C[C@@H](NC(=O)[C@@H](Cc1ccccc1)NC(=O)CNC[C@H](C)c1ccccc1)C(=O)N[C@H](CCCCN)C(=O)N1CCC(N)(C(=O)O)CC1 [Embodiment 12] (H-[Gly(N-(2R-Ph-propyl))][dF][dL][dK]-{Piperidin1yl(4-NH2,4-COOH)})	%	96.63
CC(C)C[C@@H](NC(=O)[C@@H](Cc1ccccc1)NC(=O)CNC[C@H](C)c1ccccc1)C(=O)N[C@H](CCCCN)C(=O)N1CCC(N)(C(=O)O)CC1 [Embodiment 15] (H-[Gly(N-(2R-Ph-propyl))][dF][dL][dK]-{Piperidin1yl(4-NH2,4-COOH)})	%	95.62
CC(C)C[C@@H](NC(=O)[C@@H](Cc1ccccc1)NC(=O)CNC[C@H](C)c1ccccc1)C(=O)N[C@H](CCCCN)C(=O)N1CCC(N)(C(=O)O)CC1 [Embodiment 14] (H-[Gly(N-(2R-Ph-propyl))][dF][dL][dK]-{Piperidin1yl(4-NH2,4-COOH)})	%	99.12
CC(C)C[C@@H](NC(=O)[C@@H](Cc1ccccc1)NC(=O)CNC[C@H](C)c1ccccc1)C(=O)N[C@H](CCCCN)C(=O)N1CCC(N)(C(=O)O)CC1 [Embodiment 20] (H-[Gly(N-(2R-Ph-propyl))][dF][dL][dK]-{Piperidin1yl(4-NH2,4-COOH)})	%	97.72
CC(C)C[C@@H](NC(=O)[C@@H](Cc1ccccc1)NC(=O)CNC[C@H](C)c1ccccc1)C(=O)N[C@H](CCCCN)C(=O)N1CCC(N)(C(=O)O)CC1 [Embodiment 4] (H-[Gly(N-(2R-Ph-propyl))][dF][dL][dK]-{Piperidin1yl(4-NH2,4-COOH)})	%	94.91
CC(C)C[C@@H](NC(=O)[C@@H](Cc1ccccc1)NC(=O)CNC[C@H](C)c1ccccc1)C(=O)N[C@H](CCCCN)C(=O)N1CCC(N)(C(=O)O)CC1 [Embodiment 9] (H-[Gly(N-(2R-Ph-propyl))][dF][dL][dK]-{Piperidin1yl(4-NH2,4-COOH)})	%	94.27
CC(C)C[C@@H](NC(=O)[C@@H](Cc1ccccc1)NC(=O)CNC[C@H](C)c1ccccc1)C(=O)N[C@H](CCCCN)C(=O)N1CCC(N)(C(=O)O)CC1 [Embodiment 13] (H-[Gly(N-(2R-Ph-propyl))][dF][dL][dK]-{Piperidin1yl(4-NH2,4-COOH)})	%	97.28
CC(C)C[C@@H](NC(=O)[C@@H](Cc1ccccc1)NC(=O)CNC[C@H](C)c1ccccc1)C(=O)N[C@H](CCCCN)C(=O)N1CCC(N)(C(=O)O)CC1 [Embodiment 2] (H-[Gly(N-(2R-Ph-propyl))][dF][dL][dK]-{Piperidin1yl(4-NH2,4-COOH)})	%	96.68
CC(C)C[C@@H](NC(=O)[C@@H](Cc1ccccc1)NC(=O)CNC[C@H](C)c1ccccc1)C(=O)N[C@H](CCCCN)C(=O)N1CCC(N)(C(=O)O)CC1 [Embodiment 6] (H-[Gly(N-(2R-Ph-propyl))][dF][dL][dK]-{Piperidin1yl(4-NH2,4-COOH)})	%	95.32

====

assay type: physicochemical; settings: 25° C., 60% RH, nitrogen protection, 3 months
Where a SMILES comes first, the peptide text is derived from it. [ ]: non-standard residue; d: D form. The star is where a group is joined. Gly(N-(2R-Ph-propyl)) = C[C@@H](CNCC(=O)O)c1ccccc1; Piperidin1yl(4-NH2,4-COOH) = NC1(C(=O)O)CCN(*)CC1
QUANTITY: Purity % (%)

COMPOUND	QUANTITY	RECORDED_NUMBER
CC(C)C[C@@H](NC(=O)[C@@H](Cc1ccccc1)NC(=O)CNC[C@H](C)c1ccccc1)C(=O)N[C@H](CCCCN)C(=O)N1CCC(N)(C(=O)O)CC1 [Embodiment 3] (H-[Gly(N-(2R-Ph-propyl))][dF][dL][dK]-{Piperidin1yl(4-NH2,4-COOH)})	Purity %	99.51
CC(C)C[C@@H](NC(=O)[C@@H](Cc1ccccc1)NC(=O)CNC[C@H](C)c1ccccc1)C(=O)N[C@H](CCCCN)C(=O)N1CCC(N)(C(=O)O)CC1 [Embodiment 15] (H-[Gly(N-(2R-Ph-propyl))][dF][dL][dK]-{Piperidin1yl(4-NH2,4-COOH)})	Purity %	99.62
CC(C)C[C@@H](NC(=O)[C@@H](Cc1ccccc1)NC(=O)CNC[C@H](C)c1ccccc1)C(=O)N[C@H](CCCCN)C(=O)N1CCC(N)(C(=O)O)CC1 [Embodiment 11] (H-[Gly(N-(2R-Ph-propyl))][dF][dL][dK]-{Piperidin1yl(4-NH2,4-COOH)})	Purity %	99.51
CC(C)C[C@@H](NC(=O)[C@@H](Cc1ccccc1)NC(=O)CNC[C@H](C)c1ccccc1)C(=O)N[C@H](CCCCN)C(=O)N1CCC(N)(C(=O)O)CC1 [Embodiment 9] (H-[Gly(N-(2R-Ph-propyl))][dF][dL][dK]-{Piperidin1yl(4-NH2,4-COOH)})	Purity %	99.50
